Target: T1, EsCas13d, nuclease-dead (Eubacterium siraeum, UniProt B0MS50, R295A;H300A;R849A;H854A)
T1 sequence: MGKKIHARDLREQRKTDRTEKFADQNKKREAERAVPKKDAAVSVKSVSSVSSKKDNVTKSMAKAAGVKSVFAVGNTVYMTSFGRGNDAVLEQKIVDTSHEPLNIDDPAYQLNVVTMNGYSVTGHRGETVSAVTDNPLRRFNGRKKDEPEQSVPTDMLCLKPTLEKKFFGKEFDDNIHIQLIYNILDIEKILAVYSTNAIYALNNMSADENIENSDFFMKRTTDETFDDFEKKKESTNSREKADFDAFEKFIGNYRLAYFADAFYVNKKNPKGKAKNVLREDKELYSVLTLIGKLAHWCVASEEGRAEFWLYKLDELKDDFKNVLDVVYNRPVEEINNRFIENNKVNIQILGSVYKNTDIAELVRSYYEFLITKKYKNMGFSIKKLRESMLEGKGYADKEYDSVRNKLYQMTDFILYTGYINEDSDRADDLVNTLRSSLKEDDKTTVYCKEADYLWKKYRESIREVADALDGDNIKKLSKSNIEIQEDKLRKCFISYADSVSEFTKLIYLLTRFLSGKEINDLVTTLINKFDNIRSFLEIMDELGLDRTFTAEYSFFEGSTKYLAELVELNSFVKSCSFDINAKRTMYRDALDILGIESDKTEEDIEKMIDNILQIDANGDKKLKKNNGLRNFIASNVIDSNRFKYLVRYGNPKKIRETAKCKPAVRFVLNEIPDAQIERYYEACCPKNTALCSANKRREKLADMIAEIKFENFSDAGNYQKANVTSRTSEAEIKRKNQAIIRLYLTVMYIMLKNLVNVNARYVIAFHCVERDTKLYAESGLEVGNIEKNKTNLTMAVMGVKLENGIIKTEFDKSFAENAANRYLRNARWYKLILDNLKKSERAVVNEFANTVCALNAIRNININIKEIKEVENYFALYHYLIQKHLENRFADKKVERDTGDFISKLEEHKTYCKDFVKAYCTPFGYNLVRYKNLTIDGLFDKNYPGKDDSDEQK
Assay: crRNA (strand 1, pre-loaded); Mg2+; 40 mM Tris-HCl pH 7.5, 150 mM NaCl, 6 mM MgCl2, 1 mM DTT, 0.1% Tween-20, 0.2 mg/ml BSA; 25 C; 10 min per concentration, then washed
Conditions: tags: His6-TwinStrep-SUMO cleaved; N-terminal SNAP kept (SNAP-Surface 488); label: 3' end held by stalled T7 RNA polymerase
Provide the recorded Kd for the entries that follow.
Give bare numbers, in nM.

// known answers, use as guide
BINDER	Kd (nM)
target 3 insU 3' of 6,insA 3' of 6 (mixed) RNA 1: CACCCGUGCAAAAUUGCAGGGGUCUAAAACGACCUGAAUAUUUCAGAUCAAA RNA 2: GGGAAUGGAUCCACAUCUACGAAUUCGUUUUUGAUCUGAAAUAUUCUAAGGUCUGCAGAUCGGAAGAGCACACGU	8.69
target 2 MT 5'PFS CGG 3'PFS UUA (mixed) RNA 1: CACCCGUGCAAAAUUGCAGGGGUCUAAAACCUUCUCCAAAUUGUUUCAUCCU RNA 2: GGGAAUGGAUCCACAUCUACGAAUUCCGGAGGAUGAAACAAUUUGGAGAAGUUAAGAUCGGAAGAGCACACGU	7
target 1 MT 5'PFS CAG 3'PFS CUG (mixed) RNA 1: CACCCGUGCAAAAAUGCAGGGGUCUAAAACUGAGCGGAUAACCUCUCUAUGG RNA 2: GGGAAUGGAUCCACAUCUACGAAUUCCAGCCAUAGAGAGGUUAUCCGCUCACUGAGAUCGGAAGAGCACACGU	19

Go through the list and state Kd for each entry.
1. target 2 MT 5'PFS UUA 3'PFS AUG (mixed) RNA 1: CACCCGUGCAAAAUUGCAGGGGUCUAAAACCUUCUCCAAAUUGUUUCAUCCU RNA 2: GGGAAUGGAUCCACAUCUACGAAUUCUUAAGGAUGAAACAAUUUGGAGAAGAUGAGAUCGGAAGAGCACACGU
2. target 2 MT 5'PFS UAC 3'PFS ACG (mixed) RNA 1: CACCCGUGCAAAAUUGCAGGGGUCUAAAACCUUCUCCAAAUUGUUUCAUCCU RNA 2: GGGAAUGGAUCCACAUCUACGAAUUCUACAGGAUGAAACAAUUUGGAGAAGACGAGAUCGGAAGAGCACACGU

a:
1: 50; 2: 5.6
